- Tested on: Escherichia coli TOP10;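 note: peptides expressed intracellularly from a pBAD plasmid library in pooled LB shake-flask culture, induced with 0.3% L-arabinose, DNA abundance read by NGS, three biological replicates, DESeq2 with apeglm shrinkage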
- method_description: shrunken log2 fold change of peptide-encoding DNA abundance (4.5 h post-induction vs induction); higher = less antimicrobial activity (less host growth inhibition)
- measurement_parameters: time post-induction: 4.5 h; library: site-saturation at positions 5, 18, 19, 20
property: shrunken log2 fold change

INSERT INTO assay_data (residue_codes, property, assay_value) VALUES
  ('RRIRGRPPRLPRPRPRPCVNPRP', 'shrunken log2 fold change', 0.0252),
  ('RRIRLRPPRLPRPRPRPWEKPRP', 'shrunken log2 fold change', 0.0916),
  ('RRIRPRPPRLPRPRPRPGHKPRP', 'shrunken log2 fold change', -0.287),
  ('RRIRERPPRLPRPRPRPIHMPRP', 'shrunken log2 fold change', -0.0835),
  ('RRIRLRPPRLPRPRPRPNRWPRP', 'shrunken log2 fold change', 0.254),
  ('RRIRPRPPRLPRPRPRPPMVPRP', 'shrunken log2 fold change', 0.0188),
  ('RRIRCRPPRLPRPRPRPDFWPRP', 'shrunken log2 fold change', 0.0753),
  ('RRIRFRPPRLPRPRPRPFSNPRP', 'shrunken log2 fold change', 0.0406),
  ('RRIRCRPPRLPRPRPRPIALPRP', 'shrunken log2 fold change', -0.102),
  ('RRIRERPPRLPRPRPRPCWIPRP', 'shrunken log2 fold change', -0.594),
  ('RRIRQRPPRLPRPRPRPHVLPRP', 'shrunken log2 fold change', 0.0625),
  ('RRIRWRPPRLPRPRPRPSDVPRP', 'shrunken log2 fold change', -0.545),
  ('RRIRARPPRLPRPRPRPILRPRP', 'shrunken log2 fold change', 0.0733),
  ('RRIRTRPPRLPRPRPRPPKKPRP', 'shrunken log2 fold change', 0.0946),
  ('RRIRQRPPRLPRPRPRPVHGPRP', 'shrunken log2 fold change', -0.0392),
  ('RRIRERPPRLPRPRPRPNKWPRP', 'shrunken log2 fold change', -0.576),
  ('RRIRMRPPRLPRPRPRPRLFPRP', 'shrunken log2 fold change', 0.998),
  ('RRIRKRPPRLPRPRPRPLYQPRP', 'shrunken log2 fold change', -0.187),
  ('RRIRWRPPRLPRPRPRPWYMPRP', 'shrunken log2 fold change', -0.885),
  ('RRIRQRPPRLPRPRPRPALGPRP', 'shrunken log2 fold change', 0.563),
  ('RRIRWRPPRLPRPRPRPCLLPRP', 'shrunken log2 fold change', -0.188),
  ('RRIRKRPPRLPRPRPRPTYAPRP', 'shrunken log2 fold change', 0.431),
  ('RRIRFRPPRLPRPRPRPISFPRP', 'shrunken log2 fold change', -0.0661),
  ('RRIRWRPPRLPRPRPRPFVEPRP', 'shrunken log2 fold change', -0.436),
  ('RRIRERPPRLPRPRPRPCRWPRP', 'shrunken log2 fold change', -0.205),
  ('RRIRIRPPRLPRPRPRPQWPPRP', 'shrunken log2 fold change', 0.238),
  ('RRIRKRPPRLPRPRPRPARPPRP', 'shrunken log2 fold change', 0.575),
  ('RRIRRRPPRLPRPRPRPPYVPRP', 'shrunken log2 fold change', 0.181),
  ('RRIRSRPPRLPRPRPRPIPSPRP', 'shrunken log2 fold change', -0.00523),
  ('RRIRCRPPRLPRPRPRPHARPRP', 'shrunken log2 fold change', 0.204),
  ('RRIRFRPPRLPRPRPRPGHVPRP', 'shrunken log2 fold change', -0.447),
  ('RRIRNRPPRLPRPRPRPAGDPRP', 'shrunken log2 fold change', 0.395),
  ('RRIRGRPPRLPRPRPRPRQMPRP', 'shrunken log2 fold change', -0.0496),
  ('RRIRIRPPRLPRPRPRPEECPRP', 'shrunken log2 fold change', 0.0287),
  ('RRIRRRPPRLPRPRPRPDDCPRP', 'shrunken log2 fold change', 0.279),
  ('RRIRYRPPRLPRPRPRPAKGPRP', 'shrunken log2 fold change', -0.183),
  ('RRIRERPPRLPRPRPRPLYNPRP', 'shrunken log2 fold change', -0.264),
  ('RRIRQRPPRLPRPRPRPWELPRP', 'shrunken log2 fold change', 0.0585),
  ('RRIRSRPPRLPRPRPRPWKCPRP', 'shrunken log2 fold change', -0.0598),
  ('RRIRWRPPRLPRPRPRPLWWPRP', 'shrunken log2 fold change', 0.927),
  ('RRIRQRPPRLPRPRPRPAFPPRP', 'shrunken log2 fold change', 0.0799),
  ('RRIRNRPPRLPRPRPRPIEGPRP', 'shrunken log2 fold change', -0.0908),
  ('RRIRWRPPRLPRPRPRPYDTPRP', 'shrunken log2 fold change', -0.495),
  ('RRIRCRPPRLPRPRPRPDHSPRP', 'shrunken log2 fold change', -0.184),
  ('RRIRRRPPRLPRPRPRPRAKPRP', 'shrunken log2 fold change', 0.203),
  ('RRIRERPPRLPRPRPRPLSDPRP', 'shrunken log2 fold change', -0.0828),
  ('RRIRKRPPRLPRPRPRPHSFPRP', 'shrunken log2 fold change', -0.0644),
  ('RRIRGRPPRLPRPRPRPCPIPRP', 'shrunken log2 fold change', -0.0298),
  ('RRIRHRPPRLPRPRPRPCMYPRP', 'shrunken log2 fold change', -0.0819),
  ('RRIRLRPPRLPRPRPRPAFWPRP', 'shrunken log2 fold change', 0.292),
  ('RRIRPRPPRLPRPRPRPRLLPRP', 'shrunken log2 fold change', 0.321),
  ('RRIRDRPPRLPRPRPRPCNFPRP', 'shrunken log2 fold change', -0.0419),
  ('RRIRNRPPRLPRPRPRPCWWPRP', 'shrunken log2 fold change', 0.0782),
  ('RRIRDRPPRLPRPRPRPAHIPRP', 'shrunken log2 fold change', -0.0312),
  ('RRIRQRPPRLPRPRPRPCWQPRP', 'shrunken log2 fold change', -0.0325),
  ('RRIRWRPPRLPRPRPRPLITPRP', 'shrunken log2 fold change', 0.0192),
  ('RRIRTRPPRLPRPRPRPCVFPRP', 'shrunken log2 fold change', -0.215),
  ('RRIRFRPPRLPRPRPRPYWGPRP', 'shrunken log2 fold change', -0.186),
  ('RRIRARPPRLPRPRPRPHASPRP', 'shrunken log2 fold change', -0.0111),
  ('RRIRKRPPRLPRPRPRPDWDPRP', 'shrunken log2 fold change', -0.193),
  ('RRIRPRPPRLPRPRPRPSECPRP', 'shrunken log2 fold change', -0.651),
  ('RRIRARPPRLPRPRPRPYTAPRP', 'shrunken log2 fold change', -0.0946),
  ('RRIRPRPPRLPRPRPRPYPSPRP', 'shrunken log2 fold change', -0.65);
